# System: NCI-H522
# Protocol Text: NCI tumour cell line growth inhibition, 48 h
Activity calls are given as the source filed them. No stated cut-off is given here; in the data, active = GI50 up to about 1.1 µM and inactive = higher.
Answer with one of the outcomes given here: active, inactive

Dear colleague, could you share the recorded outcome for CCc1cccc(CC)c1NC(=O)C1=C(C)NC(C)=C(C(=O)Nc2c(CC)cccc2CC)C1c1ccc2c(c1)OCO2 when you have a moment?
inactive

Could you do the same for O=C1c2cccc(O)c2C(=O)c2c(OC3OC(CO)C(O)C(O)C3O)cccc21 (configuration not stated) , please?
inactive

Could you do the same for CCCc1cn2c(/C=N/N=C(N)N)c(-c3c(OC)ccc(OC)c3[N+](=O)[O-])nc2s1 , please?
inactive

Could you do the same for C/C(=N/Nc1ccc([N+](=O)[O-])cc1[N+](=O)[O-])C(CC(C(=O)Nc1ccccc1C)/C(C)=N\Nc1ccc([N+](=O)[O-])cc1[N+](=O)[O-])C(=O)Nc1ccccc1C (configuration not stated) , please?
active

Could you do the same for Cc1c2ccccc2c(C2C3C(=O)N(c4ccc(Br)cc4)C(=O)C3ON2C(C(N)=O)c2ccccc2)c2ccccc12 (configuration not stated) , please?
inactive

Could you do the same for COc1cccc2c(=O)oc(-c3ccc(C(C)(C)C)cc3)nc12 , please?
inactive

Could you do the same for NC(=S)SCCC(=O)O , please?
inactive

Could you do the same for c1ccc(C2=NNC3c4ccccc4-c4ccccc4N3C2)cc1 (configuration not stated) , please?
inactive

Could you do the same for CC(=O)Oc1ccc2oc(=O)cc(C)c2c1 , please?
inactive

Could you do the same for C[Si](C)(c1ccccc1)C1CC(=O)CC(=O)C1 , please?
inactive

Could you do the same for CN(C)c1ccc2c(c1)oc(=O)c1ccccc12 , please?
inactive

Could you do the same for CCN1CN(c2ccccc2)C2(CCN(CC3COc4ccccc4O3)CC2)C1=O (configuration not stated) , please?
inactive
